Parameter Proto IX Mean Cps per gram, Adrenal: see the listing below.
- Test system: DBA/2 Ha mice with SMT-F subcutaneous tumors
- test summary: Proto IX content of tissues of tumor-bearing mice fed the agent (Example 6)
- Type: in vivo
- condition parameters: 2000 ppm in feed Days 2-10, sacrificed Day 10 (6j Day 7)
measured metric: Proto IX Mean Cps per gram, Adrenal

{"columns": ["molecule", "measured target", "measured metric", "value measured"],
 "data": [
  ["COC(=O)c1cc(Oc2ccc(C(F)(F)F)cc2Cl)ccc1[N+](=O)[O-]", "DBA/2 Ha mice with SMT-F subcutaneous tumors", "Proto IX Mean Cps per gram, Adrenal", "2529 Cps per gram × 10^3"],
  ["C#CCN1C(=O)C(F)Oc2cc(F)c(-n3nc(C)n(C(F)F)c3=O)cc21 (stereo not drawn)", "DBA/2 Ha mice with SMT-F subcutaneous tumors", "Proto IX Mean Cps per gram, Adrenal", "1984 Cps per gram × 10^3"],
  ["CC(C)Oc1cc(-n2nc(C(C)(C)C)oc2=O)c(Cl)cc1Cl", "DBA/2 Ha mice with SMT-F subcutaneous tumors", "Proto IX Mean Cps per gram, Adrenal", "443 Cps per gram × 10^3"]
]}

* * *

- System: HeLa cells
- test summary: Proto IX in HeLa cells and culture medium, cell growth observations (Example 8)
- Assay type: cell-based, human
- condition parameters: Homo sapiens, HeLa; 100 μM agent, compared to the control; read-out: inhibiting effect on cell growth (rough observations)

{"columns": ["compound", "measured target", "inhibition at 100 µM"],
 "data": [
  ["O=C(Nc1ccc(Cl)cc1)C(F)(F)Sc1ccccc1", "HeLa cells", "50%"],
  ["C#CCOc1cc(N2C(=O)C3CCCCC3C2=O)c(F)cc1Cl (stereo not drawn)", "HeLa cells", "50%"],
  ["O=[N+]([O-])c1ccc(Oc2ccc(Cl)cc2Cl)cc1", "HeLa cells", "25%"]
]}
